- system-name: bovine cerebral TPK1 (Bos taurus)
- Sequence (A0A059UE90 1-419): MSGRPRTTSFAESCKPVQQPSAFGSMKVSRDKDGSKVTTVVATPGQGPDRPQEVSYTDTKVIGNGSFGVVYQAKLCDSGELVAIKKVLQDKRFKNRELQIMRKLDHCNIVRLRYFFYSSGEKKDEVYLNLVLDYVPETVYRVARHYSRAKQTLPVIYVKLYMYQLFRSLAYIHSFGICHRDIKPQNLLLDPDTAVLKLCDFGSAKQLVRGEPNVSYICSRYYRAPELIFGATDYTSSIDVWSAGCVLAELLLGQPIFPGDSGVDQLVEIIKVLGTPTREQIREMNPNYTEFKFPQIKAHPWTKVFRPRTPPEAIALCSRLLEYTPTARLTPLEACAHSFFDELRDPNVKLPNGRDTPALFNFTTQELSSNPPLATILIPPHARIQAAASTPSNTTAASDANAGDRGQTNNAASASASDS
- test-summary: Inhibitory activity against P-GS1 phosphorylation by bovine cerebral TPK1
- Type: biochemical
- details: P-GS1 phosphorylation, 41.7 μM [γ-32P] ATP, 25° C., 2 hours; read-out: IC50
parameter: IC50 (nM)

A selection of reference data follows.
>>> number("Cn1c(OC2CCN(c3ccccc3CN3Cc4ccccc4C3)CC2)nc(-c2ccncn2)cc1=O [1.304]")
25.2
>>> number("Cn1c(OCCCc2cccnc2)nc(-c2ccncn2)cc1=O [1.810]")
201
>>> number("CC(=O)N1Cc2ccc(N3CCC(Oc4nc(-c5ccncn5)cc(=O)n4C)CC3)cc2C1 [1.230]")
154
>>> number("Cn1c(OCCOc2ccccc2)nc(-c2ccncc2)cc1=O [1.805]")
370
>>> number("Cn1c(OC2CCN(c3cccc(CN4CCCCC4)c3)CC2)nc(-c2ccncn2)cc1=O [1.223]")
9.4

P. Cn1c(OC2CCN(c3ccc(CN4CCCC4=O)cc3)CC2)nc(-c2ccncc2F)cc1=O [1.218]
Q. Cn1c(OC2CCN(c3ccc(CN4CCCCC4)cc3)CC2)nc(-c2ccncc2F)cc1=O [1.216]
## Input Would you mind telling me which has the lower recorded IC50 between P and Q ? Give the chosen item's label as your response.
## Output Q

A. Cn1c(OC2CCN(c3ccc(CN4CCNCC4)cc3)CC2)nc(-c2ccncn2)cc1=O [Compound No. 1.202]
B. Cn1c(OCC2(c3ccccc3)OCCO2)nc(-c2ccncn2)cc1=O [Compound No. 2.501]
## Input Please tell me which of the two, A or B , has the higher reported IC50 value. Give the chosen item's label as your response.
## Output B
(B: 386 nM, A: 13 nM)

1. Cn1c(OC2CCN(c3cccc(CN4CCOCC4)c3)CC2)nc(-c2ccncn2)cc1=O [1.221]
2. CN1CCN(Cc2cccc(N3CCC(Oc4nc(-c5ccncn5)cc(=O)n4C)CC3)c2)CC1 [1.222]
## Input Would you mind telling me which has the lower recorded IC50 between 1 and 2 ? Give the chosen item's label as your response.
## Output 2

P. Cn1c(OC2CCCN(c3ccc(F)cc3)C2)nc(-c2ccncn2)cc1=O (stereo not drawn) [1.105]
Q. Cn1c(OC2CCNCC2)nc(-c2ccncc2F)cc1=O [1.204]
## Input Would you mind telling me which has the lower recorded IC50 between P and Q ? Give the chosen item's label as your response.
## Output P
(P: 61.4 nM, Q: 245 nM)

I. Cn1c(OC2CCCN(c3ccccc3)C2)nc(-c2ccncn2)cc1=O (stereo not drawn) [Compound No. 1.101]
II. Cn1c(OC[C@H]2CCCN2c2ccc(F)cc2)nc(-c2ccncc2F)cc1=O [2.203]
## Input Please tell me which of the two, I or II , has the higher reported IC50 value. Give the chosen item's label as your response.
## Output II
(II: 43.1 nM, I: 9.4 nM)
